subject of test: Fuc(a1-2)Gal(b1-3)GalNAc(b1-4)[Neu5Ac(a2-3)]Gal(b1-4)Glc
assay method text: glycan array binding signal (z-score within array); higher = stronger binding
stated conditions: glycan notation: IUPAC condensed, linker removed
About 410 targets per protein were measured; listed, in parts, are those with the strongest signals and a random draw of the rest.
reported metric: glycan array binding signal (z-score)

binder: AcfC (Vibrio cholerae), Q57410 (protein) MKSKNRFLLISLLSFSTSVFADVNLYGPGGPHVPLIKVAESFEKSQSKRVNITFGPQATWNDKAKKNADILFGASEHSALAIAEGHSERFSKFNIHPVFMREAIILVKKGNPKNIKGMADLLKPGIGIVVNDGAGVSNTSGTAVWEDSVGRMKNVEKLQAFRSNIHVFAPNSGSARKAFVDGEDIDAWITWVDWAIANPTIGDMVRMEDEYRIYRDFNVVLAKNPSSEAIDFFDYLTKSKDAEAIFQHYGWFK
reported metric: glycan array binding signal (z-score)
val: -0.09

Data credit: the supplement of paper PMC8728848
